# Test system: 292921-168-R-J2-PDC KRAS tumor spheroid viability;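 note: drug exposure lasted seven days after spheroids formed for three days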
# Experiment: Anticancer human tumor 292921-168-R-J2-PDC patient-derived pancreatic carcinoma cell line growth inhibition [KRAS2]
# Measurement parameters: second compound 0.1 µM; first compound 3.16 µM; active compounds read low; spheroids with HUVEC and MSC
Hi! Could you tag entries with viability, T/C below 20% as T, and those at or above as F? Much appreciated.

Please determine if CC1OCC2(CCN(c3cnc(Sc4ccnc(N)c4Cl)c(N)n3)CC2)C1N (stereo not given) + C=CC(=O)N1CCN(c2nc(=O)n(-c3c(C)ccnc3C(C)C)c3nc(-c4c(O)cccc4F)c(F)cc23)C(C)C1 is below 20% in terms of viability, T/C. F

Please determine if CC1OCC2(CCN(c3cnc(Sc4ccnc(N)c4Cl)c(N)n3)CC2)C1N (stereo not given) + COc1cc2nc(C)nc(NC(C)c3cc(N)cc(C(F)(F)F)c3)c2cc1OC1CCOC1 is below 20% in terms of viability, T/C. F

Please determine if CC1(C)CCC(CN2CCN(c3ccc(C(=O)NS(=O)(=O)c4ccc(NCC5CCOCC5)c([N+](=O)[O-])c4)c(Oc4cnc5[nH]ccc5c4)c3)CC2)=C(c2ccc(Cl)cc2)C1 + CNCc1ccccc1-c1csc(C(C)Nc2nc(C)nc3cc(OC)c(OC)cc23)c1 is below 20% in terms of viability, T/C. F

Please determine if CCNC(=O)CC1N=C(c2ccc(Cl)cc2)c2cc(OC)ccc2-n2c(C)nnc21 (stereo not given) + C=CC(=O)N1CCN(c2nc(OCC3CCCN3C)nc3c2CCN(c2cccc4cccc(C)c24)C3)CC1CC#N is below 20% in terms of viability, T/C. F

Please determine if COC(=O)c1ccc2c(C(=Nc3ccc(N(C)C(=O)CN4CCN(C)CC4)cc3)c3ccccc3)c(O)[nH]c2c1 + C=CC(=O)N1CCN(c2nc(OCC3CCCN3C)nc3c2CCN(c2cccc4cccc(C)c24)C3)CC1CC#N is below 20% in terms of viability, T/C. T

Please determine if CC1COCCN1c1cc(-c2ccnn2C)c2ccnc(-c3ccn[nH]3)c2n1 (stereo not given) + CC1OCC2(CCN(c3cnc(Sc4ccnc(N)c4Cl)c(N)n3)CC2)C1N is below 20% in terms of viability, T/C. T

Please determine if CC1COCCN1c1cc(-c2ccnn2C)c2ccnc(-c3ccn[nH]3)c2n1 (stereo not given) + COc1cc2nc(C)nc(NC(C)c3cc(N)cc(C(F)(F)F)c3)c2cc1OC1CCOC1 is below 20% in terms of viability, T/C. T

Please determine if COc1cc(Nc2ncc3c(n2)-c2ccc(Cl)cc2C(c2c(F)cccc2OC)=NC3)ccc1C(=O)O + C=CC(=O)N1CCN(c2nc(=O)n(-c3c(C)ccnc3C(C)C)c3nc(-c4c(O)cccc4F)c(F)cc23)C(C)C1 is below 20% in terms of viability, T/C. F

Please determine if Cn1nccc1Nc1nccc(-c2cc3c(s2)C(C)(C)N(CCN2CCOCC2)C3=O)n1 + COc1cc2nc(C)nc(NC(C)c3cc(N)cc(C(F)(F)F)c3)c2cc1OC1CCOC1 is below 20% in terms of viability, T/C. T

Please determine if COc1cc2nccc(Oc3ccc(NC(=O)C4(C(=O)Nc5ccc(F)cc5)CC4)cc3)c2cc1OC + CNCc1ccccc1-c1csc(C(C)Nc2nc(C)nc3cc(OC)c(OC)cc23)c1 is below 20% in terms of viability, T/C. F
